Source of measurements: ChEMBL document CHEMBL1201862

For each record, write down the corresponding AC50.
# target-under-test: UniProtKB P07900
# Format: functional, organism-based
The source made the active and inactive calls.

AC50 reading for Cc1cc2n(n1)C(c1c[nH]c3ccccc13)Nc1ccccc1-2 (stereo not given) : 6.08 µM (active)

AC50 reading for COC(=O)C1CCN(C2CC(=O)N(c3cc(C)cc(C)c3)C2=O)CC1 (stereo not given) : 7.09 µM (active)

AC50 reading for O=C(OCn1ncc(Cl)c(Cl)c1=O)c1cccc(C(F)(F)F)c1 : 4.11 µM (active)

AC50 reading for O=C(O)CC/C(=N/Nc1ccc([N+](=O)[O-])cc1)C(=O)O : 4.79 µM (active)

AC50 reading for CCS(=O)(=O)Nc1cccc(-c2cc(-c3ccccc3)c3cc(C)ccc3n2)c1 : 4.3 µM (active)

----------
# target-under-test: Corticotropin-releasing factor receptor 2/Corticotropin-releasing factor-binding protein (Homo sapiens, UniProt P24387+Q13324)
# Sequence (Q13324 whole entry): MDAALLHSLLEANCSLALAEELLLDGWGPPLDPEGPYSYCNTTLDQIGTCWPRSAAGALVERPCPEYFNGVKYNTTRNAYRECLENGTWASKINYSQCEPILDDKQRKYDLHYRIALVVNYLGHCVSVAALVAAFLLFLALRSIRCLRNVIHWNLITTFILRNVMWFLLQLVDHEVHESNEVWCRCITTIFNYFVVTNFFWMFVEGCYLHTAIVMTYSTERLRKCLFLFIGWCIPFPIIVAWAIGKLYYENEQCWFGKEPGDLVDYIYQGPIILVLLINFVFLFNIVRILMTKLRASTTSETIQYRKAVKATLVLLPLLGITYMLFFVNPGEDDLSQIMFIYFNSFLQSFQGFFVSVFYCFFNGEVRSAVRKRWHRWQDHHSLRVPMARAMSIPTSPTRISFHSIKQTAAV
# Sequence (P24387 whole entry): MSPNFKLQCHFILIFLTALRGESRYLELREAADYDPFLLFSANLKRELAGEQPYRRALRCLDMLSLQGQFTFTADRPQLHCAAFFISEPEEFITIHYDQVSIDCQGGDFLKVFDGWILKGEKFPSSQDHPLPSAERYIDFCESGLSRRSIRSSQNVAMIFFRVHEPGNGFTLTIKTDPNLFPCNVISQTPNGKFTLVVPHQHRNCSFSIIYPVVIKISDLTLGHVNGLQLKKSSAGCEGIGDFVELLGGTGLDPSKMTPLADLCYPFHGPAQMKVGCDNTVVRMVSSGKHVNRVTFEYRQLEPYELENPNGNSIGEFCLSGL
# test-protocol: activators of CRF receptor 2 with binding protein – uHTS hits, confirmation (AID 602473)
# Type: functional
# test-conditions: read-out: EC50_Mean
Active and inactive are the calls of the source.
Hi! Could you answer with just one of these? 1 = active, 0 = inactive

For this compound, state the assay outcome: CC(NC(=O)CC(c1ccccc1)c1cc(Cl)ccc1O)c1ccccc1 (stereo not given)
0

For this compound, state the assay outcome: C/C=C/C(=O)Nc1cccc(C2=NOC3(C2)C[C@@H](C(N)=O)N(C(=O)c2cc([N+](=O)[O-])cc([N+](=O)[O-])c2C)C3)c1 (stereo not given in full)
0

For this compound, state the assay outcome: Cn1cc(CN2CCCC(C(=O)Nc3cccc(-c4cc5ccccc5[nH]4)c3)C2)cn1 (stereo not given)
1

For this compound, state the assay outcome: COC(=O)c1c(NC(=O)CN2CCC3(O)CCCCC3C2c2ccccc2OC)sc(C)c1C (stereo not given)
0

For this compound, state the assay outcome: O=C1N=C(S)SC1=Cc1ccc(N(CCCl)CCCl)cc1
1

For this compound, state the assay outcome: O=C(NCc1cn2ccccc2n1)C1CCC(=O)N(Cc2ccccc2F)C1 (stereo not given)
0

For this compound, state the assay outcome: COc1cc(C=C2C(=O)c3ccccc3C2=O)cc(OC)c1OC
0

For this compound, state the assay outcome: COc1ccc(Cc2nnc(NC(=O)Nc3ccc(C)cc3)s2)cc1OC
0

For this compound, state the assay outcome: Cc1cccc(N2C(=O)NC(=O)/C(=C\c3ccc(N4CCOCC4)cc3)C2=O)c1
0

For this compound, state the assay outcome: CCN1C(=O)C(=CC=CN(C)c2ccccc2)SC1=S
1

----------
Below are IC50 values measured for Glyceraldehyde-3-phosphate dehydrogenase (Homo sapiens).
Active and inactive are the calls of the source.

IC50 reading for O=S(=O)(Nc1ccccc1Br)c1cnc2ccccc2c1 : > 10 µM (inconclusive)

IC50 reading for O=C(NCCO)c1cc(-c2cc(F)c(Cl)cc2Cl)n[nH]1 : > 100 µM (not active)

IC50 reading for Cc1cc(NC(=O)c2cccs2)no1 : 50.1 µM (active)

IC50 reading for Cc1cccc(C)c1OCc1nnc2c3cnn(-c4ccccc4)c3ncn12 : > 100 µM (not active)

IC50 reading for O=S(=O)(Nc1cccnc1)c1cc(Cl)ccc1F : > 100 µM (not active)

----------
# System: BJ
# test-protocol: BJ-TERT fibroblast viability loss – cell-based, RAS-independent, luminescence, dose response (AID 1933)
# Format: functional
# test-conditions: Homo sapiens
Activity calls are given as the source filed them.
For each record, write down the corresponding EC50.

EC50 reading for Cc1cccc(OCC(=O)Nc2ccc(C(=O)NCc3cccnc3)cc2)c1 : > 150 µM (not active)

EC50 reading for Cc1cccc(Nc2nc(N)nc(CCl)n2)c1 : 6.83 µM (inconclusive)

EC50 reading for Cc1c(C(=O)c2ccc(Cl)c([N+](=O)[O-])c2)c2ccccn2c1CCC#N : > 150 µM (not active)

EC50 reading for O=C(NC(Nc1nc2ccc([N+](=O)[O-])cc2s1)(C(F)(F)F)C(F)(F)F)c1ccccc1Cl : 1.35 µM (active)
